- protocol-description: in vitro; also: reference of the scale not given here
- experimental-conditions: human, HepG2-A16-CD81EGFP cells, uninfected
measured-parameter: viability at 66 h (%)
Numbers only, in %.

Below, each entry is followed by its recorded viability at 66 h result.
Clc1ccc2c(NCc3ccccn3)ccnc2c1; 107
CCNC(S)=N/N=C/c1sc(N2CCCCC2)nc1-c1cccs1; 103
OC(CN1CCN(c2ccccn2)CC1)Cn1c2ccc(Cl)cc2c2cc(Cl)ccc21 (stereo not drawn); 102
Clc1ccc(-c2nnc(N3CCCC3)nn2)cc1; 102
N=c1n(N)c2ccccc2n1CC(=O)c1ccc(Br)cc1; 103

Go through the list and state viability at 66 h for each entry.
1. CCNc1nc(NC(C)(C)C)nc(N2CCCC2)n1
2. O=C(CC[S+](=O)([O-])c1cc(Br)cc2c1N(C(=O)C1CC1)CC2)Nc1ccc(Br)cc1F
3. OC(CNCc1cccc(Cl)c1)c1ccccc1 (stereo not drawn)
4. Cc1c(O)c(CN2CCCCC2)cc2c1oc(=O)c1ccccc12
5. O=c1c(-c2ccc(Br)cc2)coc2c(CN3CCCCC3)c(O)ccc12

99.9
94
106
95.3
98.2

Hi, could you look up viability at 66 h for each item in my list?
1. C=CCNc1nc(N(c2ccccc2)c2ccccc2)nc(-n2ccnc2)n1
2. CCCCN(C(=O)c1ccco1)c1nnc(-c2cc(OC)c(OC)c(OC)c2)s1

107
104

Give viability at 66 h for each of the items listed below.
1. Cc1n[nH]c(=S)n(/N=C/c2cccs2)c1=O
2. COc1ccc(C(=O)C[n+]2ccc(N(C)C)cc2)cc1
3. CCN(CC)CCC(c1ccc2c(c1)OCO2)c1c(O)cc(OC)cc1OC (stereo not drawn)
4. COc1ccccc1N1CCN(C(=O)c2ccc3c(=O)n(Cc4ccc5c(c4)OCO5)c(=O)[nH]c3c2)CC1
5. COc1ccccc1NC(=O)Cn1c(C)ccc(N[S+](=O)([O-])c2ccccc2)c1=O
6. CCCN1C(CC(C)C)=NS(=O)(=O)c2cc(NC(=O)c3cccs3)ccc21

1. 98.7
2. 100
3. 103
4. 94
5. 109
6. 106

# per-item lookup of viability at 66 h; items listed below
1. O=C(CN1CCN(C(=O)c2ccco2)CC1)Nc1cc(Cl)ccc1Cl
2. Cc1cc(C)cc(N(CC(=O)NCc2ccc3c(c2)OCO3)C(=O)CCC(=O)Nc2ccccn2)c1

[97.6, 96.4]

###

- protocol-description: in vitro
- experimental-conditions: human, HepG2-A16-CD81EGFP cells, uninfected
measured-parameter: viability at 48 h, 3 µM (%)
Numbers only, in %.

CCc1cccc(-n2c(=O)c3cccnc3n2CC(=O)NCc2ccccc2)c1 [NCGC00128448-01]; 100
O=S(=O)(c1ccc2ccccc2c1)N1CCN(C(S)=Nc2ccc(F)c(Cl)c2)CC1 [MLS000394708-01]; 98

Hey, quick one: what's viability at 48 h, 3 µM for each of these?
1. Cc1cc(N2CCN(C3CCCCC3)CC2)nc2cccc(O)c12 [MLS000118317-01]
2. C/C(Cl)=C/Cc1c(C)nc2c(ccc3ccccc32)c1O [MLS001211902-01]

1: 105; 2: 92

###

Consider the following compounds; for each one, report its viability at 48 h, 1 µM.
- protocol-description: in vitro
- experimental-conditions: human, HepG2-A16-CD81EGFP cells, uninfected
Remember to quote the unit after the number.

COc1ccc(CN2CCCC(N3CCc4ccccc4C3)C2)c(O)c1 (stereo not drawn) [MLS001001490-01]; 84%
CCc1nc(Nc2ccc3nccnc3c2)c2oc3ccccc3c2n1 [MLS000041713-01]; 104%
CCOC(=O)C1=C(C)N=c2sc(=Cc3ccc(OCC(=O)O)cc3)c(=O)n2C1c1cc(OC)c(OC)c(OC)c1 (stereo not drawn) [MLS001178475-01]; 98%
CC1=C(C(=O)Nc2ccc(C)cc2C)C(c2ccc([N+](=O)[O-])cc2)n2ncc(C(=O)Nc3ccc(F)cc3)c2N1 (stereo not drawn) [NCGC00126356-01]; 98.5%
CC(C)Oc1ccc2c(c1)OC(c1ccccc1)(C(F)(F)F)NC2=O (stereo not drawn) [MLS000392812-01]; 105%

# batch: return viability at 48 h, 1 µM for each of the 3 compounds below
1. Oc1ccc(CN2CC(CNc3ccccc3)C3(C2)CN(c2ccccc2)C3)cc1 (stereo not drawn) [NCGC00416032-01]
2. COc1cc(O)c(C(CCN2CCN(c3ccccc3)CC2)c2ccc(N(C)C)cc2)c(OC)c1 (stereo not drawn) [MLS000879536-01]
3. Cc1ccc(Cl)cc1N1CCN(Cc2cc3c(cc2O)CCC3)CC1 [MLS000572148-01]

["106%", "102%", "103%"]

For every item in the list below, what is its measured viability at 48 h, 1 µM?
1. CC(C)C(=O)OCC(=O)[C@@]12O[C@H](C3CCCCC3)O[C@@H]1C[C@H]1[C@@H]3CCC4=CC(=O)C=C[C@]4(C)[C@H]3[C@@H](O)C[C@@]12C [NCGC00167484-01]
2. CCOC(=O)c1ccc(NC2=CC(c3ccc(O)c(OCC)c3)N(c3ccc(C(=O)OCC)cc3)C2=O)cc1 (stereo not drawn) [NCGC00102600-01]

97%
98.6%
